procedure-summary: Tmax in cynomolgus monkey at 1.9 mg/kg, po after 144 hrs
Type: ADME, organism-based, Macaca fascicularis
Parameters: dose 1.9 mg/kg, route oral
study-conditions: in vivo
readout-label: Tmax (h)
Answers are plain numbers, in h.

**Query** Reported Tmax for COc1ccc(OC(=O)N(CC(=O)O)Cc2ccc(OCCc3nc(-c4ccccc4)oc3C)cc2)cc1.Cl [MURAGLITAZAR CHLORIDE] : what is it?
**Result** 1

----------
procedure-summary: Drug concentration in Beagle dog urine at 2 mg/kg, po after 24 hrs
Assay type: ADME, organism-based, Canis lupus familiaris
Design: dose 2 mg/kg, route oral
study-conditions: read-out: Drug uptake
readout-label: dose excreted at 24 h (%)
Give bare numbers, in %.

**Query** Fill in: dose excreted at 24 h of COc1ccc(OC(=O)N(CC(=O)O)Cc2ccc(OCCc3nc(-c4ccccc4)oc3C)cc2)cc1 is ___
**Result** 0.49
